The values you see were collected from ChEMBL document CHEMBL1201862.

- Test system: NCI-H522
- EXPERIMENTAL_PROTOCOL: NCI tumour cell line growth inhibition, 48 h
The source made the active and inactive calls. Cut-off read from the data, not from the text of the source: active = GI50 up to about 1.1 µM and inactive = higher.
Would you kindly list GI50 for each of these compounds?

Request the reported GI50 associated with CCOP(=O)(OCC)C(Nc1ccc(Cl)cc1)c1ccc(F)cc1 (configuration not stated)
20.3 µM (inactive)

Could you tell me which GI50 is on file for O=C(O)CC(C(=O)O)C1c2ccccc2-c2ccccc21 (configuration not stated) ?
47.9 µM (inactive)

Which measured GI50 value corresponds to CN1CN(C(=O)N2CN(C)C(=O)N(C)C2)CN(C)C1=O ?
> 100 µM (inactive)

If you can, please state the reported GI50 value of O=C1c2ccccc2-c2nc(/C=C/c3ccccc3)cc3c2c1nc1ccccc13 .
10.3 µM (inactive)

What value of GI50 has been recorded for this entry: COc1ccc2c(c1)OC(c1cccnc1)C(c1ccccc1)C2=O (configuration not stated)
> 100 µM (inactive)

What measured GI50 goes with C=C(C)COc1cc(/N=C(/S)OC(C)C)ccc1Cl ?
14.9 µM (inactive)

State the recorded GI50 for this entry: O=C1N2CCc3c([nH]c4ccccc34)C23CC2CCCC12S3 (configuration not stated)
> 50 µM (inactive)

Please report the recorded GI50 for CC1(C)C[C@@H]2C1CCC1(C)CC2(O)CC[C@H]1O (some centres not stated) .
> 100 µM (inactive)

What value of GI50 has been reported for the following compound? CNC(=S)c1nnsc1N
9.14 µM (inactive)

What value of GI50 has been recorded for this entry: Nc1n[nH]c2nc3ccc(C(F)(F)F)cc3nc12
20.3 µM (inactive)

Returns the measured GI50 for the input compound. Input: CNC(=O)CCCNC(=O)CCCC(=O)OC
> 100 µM (inactive)

Would you mind telling me what GI50 value was observed for O=C(/C=C/c1ccc(O)cc1)c1ccc(O)cc1 [4,4'-DIHYDROXYCHALCONE] ?
3.94 µM (inactive)

====

- Tested on: BT-549
- EXPERIMENTAL_PROTOCOL: NCI tumour cell line growth inhibition, 48 h
Activity calls are given as the source filed them. Cut-off read from the data, not from the text of the source: active = GI50 up to about 1.1 µM and inactive = higher.
Give measured GI50 for each item. Keep answers brief.

Param readout = GI50; param system = BT-549; param query = COC(=O)[C@]1(C)CCC[C@@]2(C)[C@@H]3C[C@@H]4[C@H]5C[C@@]3(CC[C@@H]21)C[C@@]45C ; response: value
16.5 µM (inactive)

# query: GI50 | item O=[N+]([O-])O | system: BT-549
> 100 µM (inactive)

Lab note: need GI50 with BT-549 for entry Cc1ccc(/C=C2\CN(C)CC3=C2OC(N)=C(C#N)C3c2ccc(C)cc2)cc1 (stereo not drawn) , please look it up.
16.7 µM (inactive)

====

- Tested on: SW-620
- EXPERIMENTAL_PROTOCOL: NCI tumour cell line growth inhibition, 48 h
Activity calls are given as the source filed them. Cut-off read from the data, not from the text of the source: active = GI50 up to about 1.1 µM and inactive = higher.
Give one outcome, nothing more. List: Yes = active, No = inactive

Please indicate how the test categorized CNS(=O)(=O)NN(C)S(=O)(=O)c1ccc(C)cc1 .
No

What outcome does the record of this test show for O=C1C(=O)N(c2ccc(Cl)c(Cl)c2)C(=O)C(=O)C1c1nc2ccccc2o1 ?
No

For CCOC(C)O[C@H]1C(=O)OCC1(C)C (stereo not given in full) , what call appears in the results of this test?
No

Please indicate how the test categorized ClC1=C(Cl)C(Cl)(Cl)SS1 .
No

Outcome? Cc1ccsc1/C=N/Nc1ccc2ccccc2n1
No

Assay result, entry CC[C@@H](/C=C\CCC1(C[C@@H](N)CCC=C(C)C)OCCO1)O[Si](C(C)C)(C(C)C)C(C)C — outcome?
No

Recorded call for CCOP(=O)(OCC)C(Nc1ccc(Cl)cc1)c1ccc(F)cc1 (stereo not given) ?
No

What did the test return for CC1(C)CC[C@]2(C(=O)O)CC[C@]3(C)C(=CCC4=C5C[C@H](O)[C@H](O)[C@@](C)(CO)[C@@]5(C)CC[C@]43C)[C@@H]2C1 ?
No

Per the assay record, what outcome was assigned to Cc1ccc(/C=C2\CN(C)CC3=C2OC(N)=C(C#N)C3c2ccc(C)cc2)cc1 (stereo not given) ?
No

Outcome logged for C=C1CN=C(Nc2ccc(Cl)cc2)S1 in this assay:
No

What call does the record list for COc1ccc2c(c1)OC(c1cccnc1)C(c1ccccc1)C2=O (stereo not given) ?
No

Record lookup: outcome of this test for O=C(/C=N/O)Nc1cccc(Cl)c1I ?
No

I'd appreciate the recorded outcome for COc1nc(C#CC(C)(C)C)nc(OC)n1 from this test.
No

Dear all, I need the recorded test outcome for CCC1(c2c(F)c(F)c(N)c(F)c2F)CCC(=O)NC1=O (stereo not given) , thank you.
No

Assay outcome for Cc1ccnc2[nH]c(-c3ccccc3)cc(=O)c12 : what was it?
Yes

Name the outcome recorded for COc1cc(CC2c3cc(OC)c(OC)cc3CCN2C)ccc1O (stereo not given) in the assay.
No

Recorded call for O=C(CC(=O)Nc1cccc(C(=O)O)c1)Nc1cccc(C(=O)O)c1 ?
No

What did the test return for O=C1[C@H]2ON(c3ccccc3)C(c3ccc(Cl)cc3Cl)[C@H]2C(=O)N1c1ccc(Cc2ccc(N3C(=O)[C@@H]4ON(c5ccccc5)C(c5ccc(Cl)cc5Cl)[C@@H]4C3=O)cc2)cc1 (stereo not given in full) ?
No

Name the outcome recorded for O=C(O)C(CO)NC(=O)C1C(C(=O)O)C(c2ccccc2[N+](=O)[O-])C=C(c2ccco2)N1c1ccncc1 (stereo not given) in the assay.
No

What classification did CCCCCCCCCC[C@@H](O)[C@@H]1CC[C@@H]([C@@H]2CC[C@@H]([C@@H](O)CCCCCCCCCCC(O)CC3=CC(C)OC3=O)O2)O1 (stereo not given in full) end up with in this test?
No

====

- System: OVCAR-4
- EXPERIMENTAL_PROTOCOL: NCI tumour cell line growth inhibition, 48 h
Activity calls are given as the source filed them. Rule as the data show it: active = GI50 up to about 1.1 µM and inactive = higher.
Field 'call' accepts 1.0 (active), 0.0 (inactive)

Called result for CCCCCCCCCCSC(=O)NC
0.0

Identify the outcome logged in this assay for the compound shown: COc1ccc(C(=O)CCN(C)C)c2ccccc12
0.0

Call for entry O=C(O)c1[nH]c2c([N+](=O)[O-])cc([N+](=O)[O-])cc2c1C(=O)O :
0.0

What call does the record list for COC(=O)C(C(=O)C(=O)Nc1ccc(OC)cc1[N+](=O)[O-])c1nc2cc(C)c(C)cc2nc1O (configuration not stated) ?
0.0

What did the test return for Cc1nc(C)c(N2CCN(S(=O)(=O)N(Cc3ccccc3)Cc3ccccc3)CC2)c(O)n1 ?
1.0

Dear all, I need the recorded test outcome for CC(=O)NC1c2ccccc2C(C)(C)C12CCC1(CC2)OCCO1 (configuration not stated) , thank you.
0.0

# outcome recorded in this test, key = Cc1cc(C)nc(NS(=O)(=O)c2ccc(NC(=O)c3cccc4c(NNc5ccc(S(=O)(=O)N=C(N)N)cc5)c5ccccc5nc34)cc2)n1
0.0

Answer briefly: the call reported for Cc1ccc(C2=C(c3ccccc3)C(Br)(c3ccccc3)C(c3ccccc3)=C2c2ccc(C)cc2)cc1 in this assay.
0.0

Please indicate how the test categorized CCP(=S)(CC)CCl .
0.0

# outcome recorded in this test, key = CCOC(=O)C(Cc1ccc2c(c1)CCC2)(Cc1ccc2c(c1)CCC2)C(=O)OCC
0.0

For NNC(=O)CNc1cccc(Br)c1 , what call appears in the results of this test?
0.0

Lab log entry: CCCCCCCCCC[C@@H](O)[C@@H]1CC[C@@H]([C@@H]2CC[C@@H]([C@@H](O)CCCCCCCCCCC(O)CC3=CC(C)OC3=O)O2)O1 (some centres not stated) — outcome as called in the assay?
0.0

Look up the recorded call for CCCCCCCCCCCCCCCCCC(=O)O[C@H](COC(=O)CCCCCCCCCCC)COC(=O)CCCCCCCCCCCCCCC in this test.
0.0

How was CC1(C)CC2(CC(C)(C)N1O)NC(=O)OC2=O classified in this test?
0.0

Any idea what this test logged for COc1ccc(Cn2c3c(cc(OS(=O)(=O)C(F)(F)F)c2=O)Cc2ccccc2-3)cc1 ?
0.0

Kindly provide the recorded test outcome for the following compound: Cc1ccc(C(=O)N/N=C(\N=N\c2cccc(C)c2)c2ccc(N(CCC#N)CCC#N)cc2C)cc1
0.0

// return assay outcome for O=C1C[C@H]2CC3(CC[C@H]2CN1)OCCO3
0.0

Short answer needed: outcome of this test for COC(=O)c1c(C(=O)OC)c2ccc(-c3ccc(Cl)cc3)nn2c1C(=O)c1ccc([N+](=O)[O-])cc1 ?
0.0

How did this test come out for CSc1ccc(Nc2cc(=O)[nH]c(=O)[nH]2)cc1 ?
0.0

How was CC(=O)c1cc2c(s1)C(=O)c1scc(C(C)=O)c1C2=O classified in this test?
1.0

Any idea what this test logged for COc1ccc2c(C)cc(C)nc2n1 ?
0.0

Which outcome was entered for the compound c1ccc2c(c1)NC(C1OC3CCCN3C1C1Nc3ccccc3S1)S2 (configuration not stated) in this test?
0.0

# outcome recorded in this test, key = Cc1c2cnccc2c(C)c2c1[nH]c1ccc(O)cc12
0.0

What call does the record list for CC(C)(C)C1CCC(=O)/C(=C/CC2CC(=O)N(c3ccccc3)C(=O)C2)C1 (configuration not stated) ?
0.0

Record request — test call for CC(=O)NC(C)(C)C1CC=C(C)/C(=N\O)C1 (configuration not stated)
0.0

# outcome recorded in this test, key = COc1nc(C#CC(C)(C)C)nc(OC)n1
0.0

// param item: COc1cc(CC2c3cc(OC)c(OC)cc3CCN2C)ccc1O (configuration not stated) ; yields the recorded call
0.0

Recorded test call requested for C[C@@H]1OC(=O)C[C@H]2CC(=O)N(CCC3CN(S(=O)(=O)C(F)(F)F)c4ccccc43)C[C@@H]21 (some centres not stated)
0.0

# outcome recorded in this test, key = C=C1CCN2CC[C@@H](OC(=O)/C(C)=C\C)[C@@H]12
0.0

Tell me the recorded outcome of this test for O=C1N2CCc3c([nH]c4ccccc34)C23CC2CCCC12S3 (configuration not stated) .
0.0

For O=C(CCC(=O)Nc1ccc(Cl)c(Cl)c1)CC(=O)c1ccc(Cl)cc1 , which call appears in the assay record?
0.0

Tell me the assay call for CN(C)CCCNC(=O)c1cc(NC(=O)c2cc(NC(=O)CCCn3c4ccccc4c4ccccc43)cn2C)cn1C please.
0.0
